pIC50: −log10 of the molar value.
recorded_metric: pIC50

Fill in: Serine/threonine-protein kinase PAK 4 (Homo sapiens, UniProt O96013) pIC50 for `O=C(c1cccc(-c2n[nH]c3ncc(Cc4cc(F)ccc4F)cc23)c1)N1CCC[C@H](O)C1` = < 4.00

====

Assay: Stability in human plasma assessed as parent compound remaining at 100 uM and measured after 30 mins by LC-MS/MS analysis
Assay type: ADME, cell-free
Details: read-out: Stability
recorded_metric: remaining at 0.5 h, 100 µM (%)
Just the number in %, nothing appended.

Record O=C(c1cccc(-c2n[nH]c3ncc(Cc4cc(F)ccc4F)cc23)c1)N1CCCC(O)C1 (stereo unspecified) . Reported remaining at 0.5 h, 100 µM: 88

====

Biological target: CYP2C9 (Homo sapiens, UniProt P11712)
Sequence (P11712 whole entry): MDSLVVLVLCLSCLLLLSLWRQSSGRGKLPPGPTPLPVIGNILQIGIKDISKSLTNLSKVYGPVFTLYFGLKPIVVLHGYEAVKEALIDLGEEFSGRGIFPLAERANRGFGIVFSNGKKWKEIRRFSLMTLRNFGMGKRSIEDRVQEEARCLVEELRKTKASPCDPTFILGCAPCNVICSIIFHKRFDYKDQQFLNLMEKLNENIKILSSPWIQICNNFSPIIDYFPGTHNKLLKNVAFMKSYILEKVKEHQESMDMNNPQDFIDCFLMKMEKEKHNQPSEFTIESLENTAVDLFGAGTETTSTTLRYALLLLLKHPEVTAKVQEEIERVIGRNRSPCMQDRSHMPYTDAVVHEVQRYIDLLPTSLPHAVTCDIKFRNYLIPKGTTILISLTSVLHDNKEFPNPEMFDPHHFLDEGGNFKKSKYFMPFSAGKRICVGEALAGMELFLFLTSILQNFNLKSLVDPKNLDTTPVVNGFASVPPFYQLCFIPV
Assay: Inhibition of CYP2C9 in human liver microsomes using diclofenac as substrate at 10 uM preincubated for 10 mins followed by NADPH addition and measured after 15 mins by LC-MS/MS analysis
Format: ADME, Microsome
Settings: probe diclofenac, time 25 min
recorded_metric: inhibition at 0.25 h, 10 µM (%)
Just the number in %, nothing appended.

Record O=C(c1cccc(-c2n[nH]c3ncc(Cc4cc(F)ccc4F)cc23)c1)N1CCCC(O)C1 (stereo unspecified) . Reported inhibition at 0.25 h, 10 µM: 66.6

====

Assay: Inhibition of tyrosine kinase (unknown origin)
Parameters: species or system Homo sapiens
recorded_metric: IC50

Record `O=C(Nc1cnn2ccc(N3CCC[C@@H]3c3cc(F)ccc3F)nc12)N1CC[C@H](O)C1` . Reported IC50: < 20 nM

====

Experiment: Stability in human plasma assessed as parent compound remaining at 100 uM and measured after 10 mins by LC-MS/MS analysis
Assay type: ADME, cell-free
Settings: read-out: Stability
recorded_metric: remaining at 10 min, 100 µM
# do not omit the unit; it follows the number

Record O=C(c1cccc(-c2n[nH]c3ncc(Cc4cc(F)ccc4F)cc23)c1)N1CCCC(O)C1 (stereo unspecified) . Reported remaining at 10 min, 100 µM: 104%

====

Molecular target: CYP3A4 (Homo sapiens)
Sequence (P08684 whole entry): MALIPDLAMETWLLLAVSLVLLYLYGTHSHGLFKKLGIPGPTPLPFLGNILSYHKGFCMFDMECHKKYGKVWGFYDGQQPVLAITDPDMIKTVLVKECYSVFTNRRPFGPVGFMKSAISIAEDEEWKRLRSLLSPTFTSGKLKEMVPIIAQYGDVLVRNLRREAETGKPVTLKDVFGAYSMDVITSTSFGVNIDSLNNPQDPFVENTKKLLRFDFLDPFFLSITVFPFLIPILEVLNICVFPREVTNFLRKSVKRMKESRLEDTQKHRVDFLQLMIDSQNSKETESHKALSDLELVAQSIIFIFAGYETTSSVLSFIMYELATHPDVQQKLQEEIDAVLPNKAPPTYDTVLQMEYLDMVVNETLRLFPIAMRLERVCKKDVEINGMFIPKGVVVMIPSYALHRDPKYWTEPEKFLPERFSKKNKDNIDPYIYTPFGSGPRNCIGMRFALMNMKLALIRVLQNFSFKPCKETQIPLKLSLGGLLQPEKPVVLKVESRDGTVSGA
Assay: Inhibition of CYP3A4 in human liver microsomes using midazolam as substrate at 10 uM preincubated for 10 mins followed by NADPH addition and measured after 15 mins by LC-MS/MS analysis
Assay type: ADME, Microsome
Conditions: probe midazolam, time 25 min
recorded_metric: inhibition at 0.25 h, 10 µM (%)
Just the number in %, nothing appended.

Record O=C(c1cccc(-c2n[nH]c3ncc(Cc4cc(F)ccc4F)cc23)c1)N1CCCC(O)C1 (stereo unspecified) . Reported inhibition at 0.25 h, 10 µM: 0

====

System: MCF7
Assay: Antiproliferative activity against human MCF7 cells assessed as cell growth inhibition incubated for 72 hrs by CCK-8 assay
Format: functional, cell-based
Settings: MCF7, 72 h
recorded_metric: IC50

Fill in: MCF7 IC50 for `O=C(Nc1cnn2ccc(N3CCC[C@@H]3c3cc(F)ccc3F)nc12)N1CC[C@H](O)C1` = > 40 µM

====

Biological target: CYP2D6 (Homo sapiens)
Sequence (P10635 whole entry): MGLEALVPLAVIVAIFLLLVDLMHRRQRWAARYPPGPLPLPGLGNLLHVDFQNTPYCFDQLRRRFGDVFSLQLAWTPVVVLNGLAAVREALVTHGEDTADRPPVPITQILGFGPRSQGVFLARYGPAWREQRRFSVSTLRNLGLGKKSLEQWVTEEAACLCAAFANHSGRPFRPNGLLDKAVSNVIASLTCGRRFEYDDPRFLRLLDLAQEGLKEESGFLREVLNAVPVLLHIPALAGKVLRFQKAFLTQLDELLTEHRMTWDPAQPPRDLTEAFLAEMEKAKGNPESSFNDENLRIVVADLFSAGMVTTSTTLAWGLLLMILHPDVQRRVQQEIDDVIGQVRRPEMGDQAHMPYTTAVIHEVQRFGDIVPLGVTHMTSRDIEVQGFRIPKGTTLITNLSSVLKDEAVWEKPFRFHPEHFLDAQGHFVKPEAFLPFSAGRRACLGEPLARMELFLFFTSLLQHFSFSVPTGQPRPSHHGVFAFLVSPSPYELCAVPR
Experiment: Inhibition of CYP2D6 in human liver microsomes using dextromethorphan as substrate at 10 uM preincubated for 10 mins followed by NADPH addition and measured after 15 mins by LC-MS/MS analysis
Assay type: ADME, Microsome
Details: probe dextromethorphan, time 25 min
recorded_metric: inhibition at 0.25 h, 10 µM (%)
Just the number in %, nothing appended.

Record O=C(c1cccc(-c2n[nH]c3ncc(Cc4cc(F)ccc4F)cc23)c1)N1CCCC(O)C1 (stereo unspecified) . Reported inhibition at 0.25 h, 10 µM: 25.8

The values you see were collected from ChEMBL document CHEMBL5260856.
